Experiment: Plasma protein binding, human
Assay type: in vitro ADME
Conditions: read-out: PPB, % bound, human (converted)
Listed here are compounds together with their documented fraction unbound.
quantity: fraction unbound

INSERT INTO results (compound, quantity, reported) VALUES
  ('CN[C@H](CC(C)C)C(=O)N[C@H]1C(=O)N[C@@H](CC(N)=O)C(=O)N[C@H]2C(=O)N[C@H]3C(=O)N[C@H](C(=O)N[C@H](C(=O)N[C@H](CCCNC(=N)N)C(N)=O)c4cc(O)cc(O)c4-c4cc3ccc4O)[C@H](O)c3ccc(c(Cl)c3)Oc3cc2cc(c3O[C@@H]2O[C@H](CO)[C@@H](O)[C@H](O)[C@H]2O[C@H]2C[C@](C)(N)[C@H](O)[C@H](C)O2)Oc2ccc(cc2Cl)[C@H]1O', 'fraction unbound', 0.24),
  ('CN[C@H](CC(C)C)C(=O)N[C@H]1C(=O)N[C@@H](CC(N)=O)C(=O)N[C@H]2C(=O)N[C@H]3C(=O)N[C@H](C(=O)N[C@H](C(=O)O)c4cc(O)cc(O)c4-c4cc3ccc4O)[C@H](O)c3ccc(c(Cl)c3)Oc3cc2cc(c3O[C@@H]2O[C@H](CO)[C@@H](O)[C@H](O)[C@H]2O[C@H]2C[C@](C)(N)[C@H](O)[C@H](C)O2)Oc2ccc(cc2Cl)[C@H]1O [Vancomycin, vancomycin, reference compound]', 'fraction unbound', 0.5);

---

Experiment: in vivo
Conditions: male, CD-1, mouse, plasma, sc, 121 mg/kg
quantity: AUC (µg·h/mL)

INSERT INTO measurements (molecule, reported) VALUES
  ('CN[C@H](CC(C)C)C(=O)N[C@H]1C(=O)N[C@@H](CC(N)=O)C(=O)N[C@H]2C(=O)N[C@H]3C(=O)N[C@H](C(=O)N[C@H](C(=O)N[C@H](CCCNC(=N)N)C(N)=O)c4cc(O)cc(O)c4-c4cc3ccc4O)[C@H](O)c3ccc(c(Cl)c3)Oc3cc2cc(c3O[C@@H]2O[C@H](CO)[C@@H](O)[C@H](O)[C@H]2O[C@H]2C[C@](C)(N)[C@H](O)[C@H](C)O2)Oc2ccc(cc2Cl)[C@H]1O', 366);

---

Experiment: in vivo
Conditions: male, CD-1, mouse, plasma, sc, 20 mg/kg
quantity: Cmax

INSERT INTO measurements (molecule, reported) VALUES
  ('CN[C@H](CC(C)C)C(=O)N[C@H]1C(=O)N[C@@H](CC(N)=O)C(=O)N[C@H]2C(=O)N[C@H]3C(=O)N[C@H](C(=O)N[C@H](C(=O)N[C@H](CCCNC(=N)N)C(N)=O)c4cc(O)cc(O)c4-c4cc3ccc4O)[C@H](O)c3ccc(c(Cl)c3)Oc3cc2cc(c3O[C@@H]2O[C@H](CO)[C@@H](O)[C@H](O)[C@H]2O[C@H]2C[C@](C)(N)[C@H](O)[C@H](C)O2)Oc2ccc(cc2Cl)[C@H]1O', '20400 ng/mL');

---

Assay: in vivo
Conditions: male, CD-1, mouse, plasma, sc, 20 mg/kg
quantity: AUC

INSERT INTO assay_data (molecule, quantity, reported) VALUES
  ('CN[C@H](CC(C)C)C(=O)N[C@H]1C(=O)N[C@@H](CC(N)=O)C(=O)N[C@H]2C(=O)N[C@H]3C(=O)N[C@H](C(=O)N[C@H](C(=O)N[C@H](CCCNC(=N)N)C(N)=O)c4cc(O)cc(O)c4-c4cc3ccc4O)[C@H](O)c3ccc(c(Cl)c3)Oc3cc2cc(c3O[C@@H]2O[C@H](CO)[C@@H](O)[C@H](O)[C@H]2O[C@H]2C[C@](C)(N)[C@H](O)[C@H](C)O2)Oc2ccc(cc2Cl)[C@H]1O', 'AUC', '42.7 µg·h/mL');

---

Test: in vivo
Conditions: beagle, dog, iv, 25 mg/kg
quantity: AUC (µg·h/mL)

INSERT INTO measurements (molecule, reported) VALUES
  ('CN[C@H](CC(C)C)C(=O)N[C@H]1C(=O)N[C@@H](CC(N)=O)C(=O)N[C@H]2C(=O)N[C@H]3C(=O)N[C@H](C(=O)N[C@H](C(=O)N[C@H](CCCNC(=N)N)C(N)=O)c4cc(O)cc(O)c4-c4cc3ccc4O)[C@H](O)c3ccc(c(Cl)c3)Oc3cc2cc(c3O[C@@H]2O[C@H](CO)[C@@H](O)[C@H](O)[C@H]2O[C@H]2C[C@](C)(N)[C@H](O)[C@H](C)O2)Oc2ccc(cc2Cl)[C@H]1O', 580);

---

Assay: LogD (Octanol/buffer)
Type: physicochemical
quantity: logD

INSERT INTO assay_data (molecule, quantity, reported) VALUES
  ('CN[C@H](CC(C)C)C(=O)N[C@H]1C(=O)N[C@@H](CC(N)=O)C(=O)N[C@H]2C(=O)N[C@H]3C(=O)N[C@H](C(=O)N[C@H](C(=O)N[C@H](CCCNC(=N)N)C(N)=O)c4cc(O)cc(O)c4-c4cc3ccc4O)[C@H](O)c3ccc(c(Cl)c3)Oc3cc2cc(c3O[C@@H]2O[C@H](CO)[C@@H](O)[C@H](O)[C@H]2O[C@H]2C[C@](C)(N)[C@H](O)[C@H](C)O2)Oc2ccc(cc2Cl)[C@H]1O', 'logD', '< -4.01');

---

Assay: HepG2 cell cytotoxicity
Type: cell-based
Conditions: human, HepG2 cells; FBS-deficient media
quantity: CC50

INSERT INTO measurements (compound, reported) VALUES
  ('CN[C@H](CC(C)C)C(=O)N[C@H]1C(=O)N[C@@H](CC(N)=O)C(=O)N[C@H]2C(=O)N[C@H]3C(=O)N[C@H](C(=O)N[C@H](C(=O)O)c4cc(O)cc(O)c4-c4cc3ccc4O)[C@H](O)c3ccc(c(Cl)c3)Oc3cc2cc(c3O[C@@H]2O[C@H](CO)[C@@H](O)[C@H](O)[C@H]2O[C@H]2C[C@](C)(N)[C@H](O)[C@H](C)O2)Oc2ccc(cc2Cl)[C@H]1O [Vancomycin, vancomycin, reference compound]', '> 750 µM'),
  ('CN[C@H](CC(C)C)C(=O)N[C@H]1C(=O)N[C@@H](CC(N)=O)C(=O)N[C@H]2C(=O)N[C@H]3C(=O)N[C@H](C(=O)N[C@H](C(=O)N[C@H](CCCNC(=N)N)C(N)=O)c4cc(O)cc(O)c4-c4cc3ccc4O)[C@H](O)c3ccc(c(Cl)c3)Oc3cc2cc(c3O[C@@H]2O[C@H](CO)[C@@H](O)[C@H](O)[C@H]2O[C@H]2C[C@](C)(N)[C@H](O)[C@H](C)O2)Oc2ccc(cc2Cl)[C@H]1O', '> 750 µM');

---

The following compounds are listed with their measured CC50 values.
Assay: hRPTEC biomarkers cytotoxicity screen
Type: cell-based
Details: human, human renal proximal tubular epithelial cells (hRPTEC); cell count, nuclear size, DNA structure, mitochondrial mass and membrane potential, phospholipidosis, glutathione content
quantity: CC50

INSERT INTO measurements (compound, quantity, reported) VALUES
  ('CN[C@H](CC(C)C)C(=O)N[C@H]1C(=O)N[C@@H](CC(N)=O)C(=O)N[C@H]2C(=O)N[C@H]3C(=O)N[C@H](C(=O)N[C@H](C(=O)O)c4cc(O)cc(O)c4-c4cc3ccc4O)[C@H](O)c3ccc(c(Cl)c3)Oc3cc2cc(c3O[C@@H]2O[C@H](CO)[C@@H](O)[C@H](O)[C@H]2O[C@H]2C[C@](C)(N)[C@H](O)[C@H](C)O2)Oc2ccc(cc2Cl)[C@H]1O [Vancomycin, vancomycin, reference compound]', 'CC50', '> 100 µM'),
  ('CN[C@H](CC(C)C)C(=O)N[C@H]1C(=O)N[C@@H](CC(N)=O)C(=O)N[C@H]2C(=O)N[C@H]3C(=O)N[C@H](C(=O)N[C@H](C(=O)N[C@H](CCCNC(=N)N)C(N)=O)c4cc(O)cc(O)c4-c4cc3ccc4O)[C@H](O)c3ccc(c(Cl)c3)Oc3cc2cc(c3O[C@@H]2O[C@H](CO)[C@@H](O)[C@H](O)[C@H]2O[C@H]2C[C@](C)(N)[C@H](O)[C@H](C)O2)Oc2ccc(cc2Cl)[C@H]1O', 'CC50', '> 100 µM');
